Below: a set of entries, each annotated with reported viability, T/C.
- Test system: KRAS-mutant PDC multicell tumor spheroid viability
- measurement description: Anticancer human tumor 521955-158-R2-J5-PDC patient-derived pancreatic carcinoma cell line growth inhibition [KRAS2]
- condition context: second compound 0.316 µM; first compound 3.16 µM; hits give low values

compound | unit string | viability, T/C
CC1COCCN1c1cc(-c2ccnn2C)c2ccnc(-c3ccn[nH]3)c2n1 (stereo not given) + C=CC(=O)N1CCN(c2nc(=O)n(-c3c(C)ccnc3C(C)C)c3nc(-c4c(O)cccc4F)c(F)cc23)C(C)C1 | % | 28
COc1cc(Nc2ncc3c(n2)-c2ccc(Cl)cc2C(c2c(F)cccc2OC)=NC3)ccc1C(=O)O + CC1OCC2(CCN(c3cnc(Sc4ccnc(N)c4Cl)c(N)n3)CC2)C1N | % | 36.4
COC(=O)c1ccc2c(C(=Nc3ccc(N(C)C(=O)CN4CCN(C)CC4)cc3)c3ccccc3)c(O)[nH]c2c1 + CNCc1ccccc1-c1csc(C(C)Nc2nc(C)nc3cc(OC)c(OC)cc23)c1 | % | 2.22
CC(C)NCC(C(=O)N1CCN(c2ncnc3c2C(C)CC3O)CC1)c1ccc(Cl)cc1 (stereo not given) + C=CC(=O)N1CCN(c2nc(=O)n(-c3c(C)ccnc3C(C)C)c3nc(-c4c(O)cccc4F)c(F)cc23)C(C)C1 | % | 65.3
O=C(c1cc(Cc2n[nH]c(=O)c3ccccc23)ccc1F)N1CCN(C(=O)C2CC2)CC1 + C=CC(=O)N1CCN(c2nc(=O)n(-c3c(C)ccnc3C(C)C)c3nc(-c4c(O)cccc4F)c(F)cc23)C(C)C1 | % | 93.1

====

- Tested on: KRAS-mutant PDC multicell tumor spheroid viability
- measurement description: Anticancer human tumor 521955-158-R2-J5-PDC cell line growth inhibition [KRAS2]; active means viability on the fitted dose curve at most 10% of control; inactive means the rest;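 also: viability read after seven days of drug exposure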
- condition context: second compound 3.16 µM; first compound 3.16 µM
- Source text: Multicellular complex tumor spheroid response to RAS pathway inhibitors in combination with a targeted agents in patient-derived cell lines with oncogenic KRAS variants from multiple cancer types A high-throughput screen of multi-cell type tumor spheroids was designed to identify active combinations of targeted small molecules and KRAS pathway inhibitors. […] Compounds. […] If the clinical Cmax for an agent had not been determined, the highest concentration tested was 10 microM. […]
Outcomes: 1.0 = active, 0.0 = inactive

compound | category label
Cn1nccc1Nc1nccc(-c2cc3c(s2)C(C)(C)N(CCN2CCOCC2)C3=O)n1 + C=CC(=O)N1CCN(c2nc(=O)n(-c3c(C)ccnc3C(C)C)c3nc(-c4c(O)cccc4F)c(F)cc23)C(C)C1 | 0.0
COc1cc2nccc(Oc3ccc(NC(=O)C4(C(=O)Nc5ccc(F)cc5)CC4)cc3)c2cc1OC + CNCc1ccccc1-c1csc(C(C)Nc2nc(C)nc3cc(OC)c(OC)cc23)c1 | 1.0
CC1(C)CCC(CN2CCN(c3ccc(C(=O)NS(=O)(=O)c4ccc(NCC5CCOCC5)c([N+](=O)[O-])c4)c(Oc4cnc5[nH]ccc5c4)c3)CC2)=C(c2ccc(Cl)cc2)C1 + C=CC(=O)N1CCN(c2nc(=O)n(-c3c(C)ccnc3C(C)C)c3nc(-c4c(O)cccc4F)c(F)cc23)C(C)C1 | 0.0
COC(=O)c1ccc2c(C(=Nc3ccc(N(C)C(=O)CN4CCN(C)CC4)cc3)c3ccccc3)c(O)[nH]c2c1 + CNCc1ccccc1-c1csc(C(C)Nc2nc(C)nc3cc(OC)c(OC)cc23)c1 | 1.0
Cn1nccc1Nc1nccc(-c2cc3c(s2)C(C)(C)N(CCN2CCOCC2)C3=O)n1 + CNCc1ccccc1-c1csc(C(C)Nc2nc(C)nc3cc(OC)c(OC)cc23)c1 | 1.0
COc1cc2nccc(Oc3ccc(NC(=O)C4(C(=O)Nc5ccc(F)cc5)CC4)cc3)c2cc1OC + CC1OCC2(CCN(c3cnc(Sc4ccnc(N)c4Cl)c(N)n3)CC2)C1N | 0.0
CC1(C)CCC(CN2CCN(c3ccc(C(=O)NS(=O)(=O)c4ccc(NCC5CCOCC5)c([N+](=O)[O-])c4)c(Oc4cnc5[nH]ccc5c4)c3)CC2)=C(c2ccc(Cl)cc2)C1 + COc1cc2nc(C)nc(NC(C)c3cc(N)cc(C(F)(F)F)c3)c2cc1OC1CCOC1 | 0.0
O=C(c1cc(Cc2n[nH]c(=O)c3ccccc23)ccc1F)N1CCN(C(=O)C2CC2)CC1 + C=CC(=O)N1CCN(c2nc(OCC3CCCN3C)nc3c2CCN(c2cccc4cccc(C)c24)C3)CC1CC#N | 1.0
COc1cc2nccc(Oc3ccc(NC(=O)C4(C(=O)Nc5ccc(F)cc5)CC4)cc3)c2cc1OC + C=CC(=O)N1CCN(c2nc(OCC3CCCN3C)nc3c2CCN(c2cccc4cccc(C)c24)C3)CC1CC#N | 1.0
CCNC(=O)CC1N=C(c2ccc(Cl)cc2)c2cc(OC)ccc2-n2c(C)nnc21 (stereo not given) + CNCc1ccccc1-c1csc(C(C)Nc2nc(C)nc3cc(OC)c(OC)cc23)c1 | 1.0
